- System: UniProtKB P06401
- Sequence (P06401 whole entry): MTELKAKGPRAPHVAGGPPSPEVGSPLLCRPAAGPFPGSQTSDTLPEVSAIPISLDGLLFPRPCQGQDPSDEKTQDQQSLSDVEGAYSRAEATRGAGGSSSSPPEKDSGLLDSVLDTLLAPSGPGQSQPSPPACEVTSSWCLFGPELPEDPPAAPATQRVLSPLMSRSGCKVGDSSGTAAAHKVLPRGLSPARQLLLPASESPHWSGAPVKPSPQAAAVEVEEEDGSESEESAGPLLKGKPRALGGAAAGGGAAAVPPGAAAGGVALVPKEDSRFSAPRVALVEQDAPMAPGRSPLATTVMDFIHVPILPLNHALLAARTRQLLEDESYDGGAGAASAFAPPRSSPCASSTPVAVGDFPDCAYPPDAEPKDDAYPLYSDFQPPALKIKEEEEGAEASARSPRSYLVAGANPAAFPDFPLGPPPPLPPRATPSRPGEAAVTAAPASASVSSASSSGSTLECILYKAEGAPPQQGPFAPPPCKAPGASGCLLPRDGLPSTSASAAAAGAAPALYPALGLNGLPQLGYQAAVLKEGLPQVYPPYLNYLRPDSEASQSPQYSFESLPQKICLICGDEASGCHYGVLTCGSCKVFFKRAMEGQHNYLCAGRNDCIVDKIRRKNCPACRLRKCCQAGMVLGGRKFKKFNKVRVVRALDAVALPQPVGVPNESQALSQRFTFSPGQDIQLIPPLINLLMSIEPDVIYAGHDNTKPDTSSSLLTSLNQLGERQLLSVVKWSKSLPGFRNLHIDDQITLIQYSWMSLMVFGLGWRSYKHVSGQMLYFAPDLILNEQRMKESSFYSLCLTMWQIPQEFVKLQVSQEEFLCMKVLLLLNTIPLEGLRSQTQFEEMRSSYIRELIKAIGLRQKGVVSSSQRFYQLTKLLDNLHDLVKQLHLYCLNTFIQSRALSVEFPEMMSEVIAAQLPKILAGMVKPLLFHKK
- Experiment notes: Binding affinity against Progesterone receptor in human TE85 osteosarcoma cells was determined using (Z)-[125I]-17-alpha-(2-iodovinyl)-19-nor-testosterone as radioligand
pIC50: −log10 of the molar value.
Here, each record is paired with measured pIC50 data.

Smiles string	Value qualifier	pIC50
CC(C)(C)c1ccc(C(=O)N2CCCC(c3ccccc3)=N2)cc1	<	6.00
O=C1CCC(c2ccccc2)=NN1Cc1ccc(Cl)c(Cl)c1	=	6.77
Cc1ccc(C(=O)N2CCCC(c3ccccc3)=N2)cc1	=	6.38
O=C(c1ccc(Cl)c(Cl)c1)N1CCCC(c2ccc(F)cc2)=N1	=	7.32
CCc1ccc(C2=NN(C(=O)c3ccc(Cl)c(Cl)c3)CCC2)cc1	=	6.24
COc1ccc(C(=O)N2CCCC(c3ccccc3)=N2)cc1	<	6.00
Clc1ccc(CN2CCCC(c3ccccc3)=N2)cc1Cl	<	6.00
O=C(c1ccc(Cl)c(Cl)c1)N1CCCC(c2ccccc2)=N1	=	7.20
CC1(C)CC(c2ccccc2)=NN(C(=O)c2ccc(Cl)c(Cl)c2)C1	=	7.12
O=S(=O)(c1ccc(Cl)c(Cl)c1)N1CCCC(c2ccccc2)=N1	<	6.00
O=C(c1cccc(Cl)c1)N1CCCC(c2ccccc2)=N1	=	7.15
